Please respond with reported EC50 for every item in the list.
# MEASURED ON: Adrenergic receptor alpha-2 (Homo sapiens, UniProt P08913+P18825+P18089)
# ASSAY INFO: Antagonist activity at human alpha-2 adrenergic receptor in brain prefrontal cortex membrane assessed as inhibition of UK14304-induced [35S]-GTPgammaS binding by liquid scintillation spectrometry
# Format: functional, cell membranes
Quick reminder: number only, in µM, skip the unit.

Q) Hello, I am looking for reported EC50 with Adrenergic receptor alpha-2 (Homo sapiens, UniProt P08913+P18825+P18089) for Cl.c1cc2c(nc1NC1=NCCN1)CCCC2 . Could you help?
A) 3.57

Q) Checklist item: EC50 tested on Adrenergic receptor alpha-2 (Homo sapiens, UniProt P08913+P18825+P18089), entry Cl.c1nc2c(cc1NC1=NCCN1)CCCC2 , value?
A) 4.23

Q) Entry CCNc1ccc(NC2=NCCN2)cn1.Cl , system Adrenergic receptor alpha-2 (Homo sapiens, UniProt P08913+P18825+P18089): what EC50 was measured?
A) 6.71

Q) # query: EC50 | item Cl.N=C(N)Nc1ccc2c(n1)CCCC2 | system: Adrenergic receptor alpha-2 (Homo sapiens, UniProt P08913+P18825+P18089)
A) 2.71

Q) # query: EC50 | item Cl.OCCNC1=NCc2ccccc2N1 | system: Adrenergic receptor alpha-2 (Homo sapiens, UniProt P08913+P18825+P18089)
A) 60.34

Q) Tell me reported EC50 for Cl.N=C(NCc1ccco1)Nc1ccc2c(n1)CCCC2 , tested with Adrenergic receptor alpha-2 (Homo sapiens, UniProt P08913+P18825+P18089).
A) 37.01

====

# MEASURED ON: Adrenergic receptor alpha-2 (Homo sapiens, UniProt P08913+P18825+P18089)
# ASSAY INFO: Displacement of [3H]-RX-821002 from human alpha-2 adrenergic receptor in brain prefrontal cortex membrane by liquid scintillation spectrometry
# Type: cell membranes
Outcome label depends on pKi relative to 6: at/above gives TRUE, below gives FALSE.

Q) Does the compound Cc1ccc(NC(=N)NCCO)nc1.Cl have recorded pKi that is 6 or more?
A) FALSE

Q) Hi team, for Cl.OCCNC1=NCc2ccccc2N1 , is the recorded pKi at or above 6?
A) TRUE

Q) Is it the case that Cl.N=C(N)Nc1ccc([N+](=O)[O-])cn1 has pKi reaching or exceeding 6?
A) FALSE

Q) Quick check: does Cl.c1cncc(NC2=NCCN2)c1 have pKi greater than or equal to 6?
A) FALSE

Q) Given Cl.c1cnc2c(c1)CN=C(NCc1ccc3c(c1)OCO3)N2 , state whether its pKi is at least 6.
A) FALSE

Q) Please check the record Cl.c1nc2c(cc1NC1=NCCN1)CCCC2 and state if its pKi is at or above 6.
A) TRUE

Q) Tell me whether pKi is at least 6 here: Cl.N=C(N)Nc1ccccn1
A) TRUE

Q) Record Cl.N=C(N)Nc1ccc(Cl)nc1 ; criterion: pKi no lower than 6. Met?
A) FALSE

Q) Given the entry Cl.c1cc2c(nc1NC1=NCCN1)CCCC2 , answer whether its pKi meets or surpasses 6.
A) TRUE

Q) Entry CCNc1ccc(NC(=N)N)cn1.Cl : is its pKi no less than 6?
A) TRUE

Q) # bool: pKi of Cl.c1coc(CNC2=NCc3ccccc3N2)c1 >= 6
A) FALSE

Q) Assess whether reported pKi for CCCNC(=N)Nc1ccc(Cl)cn1.Cl sits at 6 or higher.
A) FALSE

Q) Is pKi for CCNc1ccc(NC(=N)N)nc1.Cl at or above 6?
A) FALSE

Q) Threshold query (pKi >= 6) on Cl.N=C(NCCO)Nc1ccccn1
A) FALSE

Q) API: above_or_equal(metric=pKi, cutoff=6) for item CCNc1ccc(NC2=NCCN2)nc1.Cl
A) FALSE

Q) Kindly determine if pKi recorded for CCCNC1=NCc2ccccc2N1.Cl is above or exactly 6.
A) FALSE

Q) Kindly determine if pKi recorded for Cl.N=C(N)Nc1ccc2c(n1)CCCC2 is above or exactly 6.
A) TRUE

Q) Hi team, for CCNc1ccc(NC2=NCCN2)cn1.Cl , is the recorded pKi at or above 6?
A) TRUE

Q) Is reported pKi greater than or equal to 6 here: Cl.N=C(N)Nc1ccc(N)cn1
A) FALSE

Q) Does the compound Cl.N=C(N)Nc1cccnc1 have recorded pKi that is 6 or more?
A) FALSE

Q) Threshold query (pKi >= 6) on Cc1ccc(NC(=N)NCc2ccco2)nc1.Cl
A) TRUE

Q) Has Cl.c1ccc(NC2=NCc3ccccc3N2)cc1 a recorded pKi greater than or equal to 6?
A) FALSE

Q) Exam item: decide whether the reported pKi for Cl.Clc1ccc(NC2=NCCN2)nc1 is at least 6.
A) TRUE

Q) Exam item: decide whether the reported pKi for Cl.c1ccc(NC2=NCCN2)nc1 is at least 6.
A) TRUE

Q) # bool: pKi of Cl.N=C(NCc1ccco1)Nc1ccccn1 >= 6
A) TRUE

Q) For this compound, is measured pKi 6 or higher? Cl.OCCNC1=NCc2cccnc2N1
A) FALSE

Q) // inclusive: pKi at least 6? input: Cl.N=C(Nc1ccccc1)Nc1ccccn1
A) TRUE

====

Record form. Attribute: pKi. Fill in for each entry.
# MEASURED ON: Adrenergic receptor alpha-2 (Homo sapiens, UniProt P08913+P18825+P18089)
# Sequence (P08913 whole entry): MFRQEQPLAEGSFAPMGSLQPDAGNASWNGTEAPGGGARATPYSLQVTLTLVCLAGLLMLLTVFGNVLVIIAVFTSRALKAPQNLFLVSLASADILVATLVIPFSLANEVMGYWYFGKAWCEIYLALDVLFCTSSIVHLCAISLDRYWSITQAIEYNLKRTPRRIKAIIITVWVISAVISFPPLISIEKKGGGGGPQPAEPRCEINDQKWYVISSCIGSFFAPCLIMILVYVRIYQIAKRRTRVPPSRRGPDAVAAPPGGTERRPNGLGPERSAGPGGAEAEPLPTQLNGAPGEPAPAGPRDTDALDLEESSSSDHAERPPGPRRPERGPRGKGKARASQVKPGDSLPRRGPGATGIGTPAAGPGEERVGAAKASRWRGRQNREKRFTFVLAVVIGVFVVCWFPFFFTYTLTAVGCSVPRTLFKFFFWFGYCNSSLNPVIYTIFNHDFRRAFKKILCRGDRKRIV
# Sequence (P18825 whole entry): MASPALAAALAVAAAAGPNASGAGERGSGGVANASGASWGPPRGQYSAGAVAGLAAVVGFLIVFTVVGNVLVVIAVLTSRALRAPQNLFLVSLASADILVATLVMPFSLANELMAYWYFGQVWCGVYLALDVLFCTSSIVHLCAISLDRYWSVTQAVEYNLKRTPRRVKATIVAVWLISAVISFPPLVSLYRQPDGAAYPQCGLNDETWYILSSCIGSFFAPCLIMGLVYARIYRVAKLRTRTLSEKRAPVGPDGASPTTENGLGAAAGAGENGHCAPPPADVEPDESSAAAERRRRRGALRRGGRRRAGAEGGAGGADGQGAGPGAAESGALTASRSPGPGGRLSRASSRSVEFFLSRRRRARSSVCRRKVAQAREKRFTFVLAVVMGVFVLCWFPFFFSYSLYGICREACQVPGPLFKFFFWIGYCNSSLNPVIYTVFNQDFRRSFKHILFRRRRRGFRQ
# Sequence (P18089 whole entry): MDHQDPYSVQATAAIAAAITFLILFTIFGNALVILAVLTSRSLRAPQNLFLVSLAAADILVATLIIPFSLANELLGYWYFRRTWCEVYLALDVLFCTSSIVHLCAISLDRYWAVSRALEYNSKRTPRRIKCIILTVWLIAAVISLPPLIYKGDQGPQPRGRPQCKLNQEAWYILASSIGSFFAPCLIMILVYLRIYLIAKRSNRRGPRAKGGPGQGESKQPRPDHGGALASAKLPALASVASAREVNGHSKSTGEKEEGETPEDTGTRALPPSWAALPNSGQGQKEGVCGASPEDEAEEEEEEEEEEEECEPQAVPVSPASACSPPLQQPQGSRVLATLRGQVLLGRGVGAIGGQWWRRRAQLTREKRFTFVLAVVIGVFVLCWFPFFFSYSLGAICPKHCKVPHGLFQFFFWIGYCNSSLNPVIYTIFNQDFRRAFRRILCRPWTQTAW
# ASSAY INFO: Displacement of [3H]-RX-821002 from human alpha-2 adrenergic receptor in brain prefrontal cortex membrane by liquid scintillation spectrometry
# Type: cell membranes

Q) Given the compound CCCNC(=N)Nc1ccc(C)cn1.Cl , what is its reported pKi?
A) 6.74

Q) Reported pKi for Cl.N=C(N)Nc1ccc(Br)cn1 : what is it?
A) 5.62

Q) Please look up its pKi: Cl.c1coc(CNC2=NCc3cccnc3N2)c1
A) 4.5

Q) Sample Cl.N=C(N)Nc1cnc2c(c1)CCCC2 — what was its pKi?
A) 5.57

Q) For Cl.N=C(N)Nc1ccc(Cl)cn1 , what is its reported pKi?
A) 5.7

Q) Give its pKi value. Item: Cc1ccc(NC2=NCCN2)nc1.Cl
A) 6.41

Q) Returns the measured pKi for the input compound. Input: Cl.N=C(NCc1ccco1)Nc1ccc2c(n1)CCCC2
A) 6.67

Q) For the compound shown here, Cc1ccc(NC(=N)N)cn1.Cl , give the reported pKi.
A) 4.97

Q) What measured pKi goes with Cl.N=C(Nc1ccccc1)Nc1ccc2c(n1)CCCC2 ?
A) 6.75
